Hey, just so you know, these numbers are from patent US20130123181A1.

ASSAYED_TARGET: T1, recombinant HLA-DRB1*1501 protein (human)
T1 construct: recombinant class II protein; also called DR1501
ASSAY_NOTES: competition assay, reference peptide on DR1501
No end group written: not given here.
MEASURED_PARAMETER: IC50 (nM)
Numbers only, in nM.

Please give the measured IC50 for this binder: NPVVHFFKNIVTPRTPPPS (also: used biotinylated as labelled reference peptide) [Human MBP 84-102 reference peptide]
50
